Some binders, each annotated with its measured OD450 at 0.11 nM.
# target.of.assay: biotinylated labeled human GPC3 protein (produced in-house) (human, UniProt P51654 25-559, limits assumed, biotinylated (Dojindo, Cat. No. LK03); sites not stated)
# protocol.description: ELISA, biotinylated human GPC3 protein
Quick note: give the figure in OD450, leave out the unit.

Record excerpt, results attached:
binder | OD450 at 0.11 nM / OD450
hAb003LH2L1b (antibody, human IgG1, V domains shown, Humanized F2.154.1; VH H2 + VL L1b; expressed as human IgG1) VH: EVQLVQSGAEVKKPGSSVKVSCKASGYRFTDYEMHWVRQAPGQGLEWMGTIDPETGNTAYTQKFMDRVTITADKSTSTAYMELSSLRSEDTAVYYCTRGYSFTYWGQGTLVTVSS VL: DIVMTQTPLSLPVTPGEPASISCRSSQNIVHSNRNTYLQWYLQKPGQSPQLLIFKVSNRFSGVPDRFSGSGSGTDFTLKISRVEAEDVGVYYCFQGSHVPFTFGQGTKLEIK | 1.97
hAb001H1L1 (antibody, human IgG1, V domains shown, Humanized F2.169.2; VH H1 + VL L1; expressed as human IgG1) VH: EVQLVESGGGLVQPGGSLRLSCAASGFSFNTNAMNWVRQAPGKGLEWVGRIRSKSNNYATYYADSVKDRFTISRDDSKNSLYLQMNSLKTEDTAVYYCVRDGYYVLFAYWGQGTLVTVSS VL: DIVMTQTPLSLPVTPGEPASISCRFSQSIVNSNGNTYLEWFLQKPGQSPQLLIYKVSNRFSGVPDRFSGSGSGTDFTLKISRVEAEDVGVYYCFQGSHVPFTFGQGTKLEIK | 2
hAb005LH1L1b (antibody, human IgG1, V domains shown, Humanized F3.54.12; VH H1 + VL L1b; expressed as human IgG1) VH: EVQLVQSGAEVKKPGASVKVSCKASGYTFTDYEMHWVRQAPGQGLEWMGAIDPETGNTAYIQKFKGRVTMTTDKSTSTAYMELRSLRSDDTAVYYCTRFYSYSHWGQGTTVTVSS VL: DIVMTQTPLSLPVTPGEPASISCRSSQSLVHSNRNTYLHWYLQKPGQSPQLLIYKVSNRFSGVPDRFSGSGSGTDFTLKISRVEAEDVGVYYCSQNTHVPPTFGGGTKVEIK | 0.812
hAb006LH3L1a (antibody, human IgG1, V domains shown, Humanized F3.38.7; VH H3 + VL L1a; expressed as human IgG1) VH: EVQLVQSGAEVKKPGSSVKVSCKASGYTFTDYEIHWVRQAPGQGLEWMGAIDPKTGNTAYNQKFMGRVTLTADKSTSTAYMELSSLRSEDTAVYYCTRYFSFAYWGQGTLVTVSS VL: DIVMTQTPLSLPVTPGEPASISCRSSQTFVHSDGNTYLQWYLQKPGQSPQLLIYKVSNRFSGVPDRFSGSGSGTDFTLKISRVEAEDVGVYYCFQGSHVPYTFGQGTKLEIK | 0.207

Please report the recorded OD450 at 0.11 nM for hAb006LH3L1 (antibody, human IgG1, V domains shown, Humanized F3.38.7; VH H3 + VL L1; expressed as human IgG1) VH: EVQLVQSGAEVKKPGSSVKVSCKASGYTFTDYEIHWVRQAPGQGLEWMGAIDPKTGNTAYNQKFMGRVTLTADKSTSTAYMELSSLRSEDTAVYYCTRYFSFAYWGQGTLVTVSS VL: DIVMTQTPLSLPVTPGEPASISCRSSQTFVHSNGNTYLQWYLQKPGQSPQLLIYKVSNRFSGVPDRFSGSGSGTDFTLKISRVEAEDVGVYYCFQGSHVPYTFGQGTKLEIK .
1.65
